# Test system: promastigote forms of Leishmania amazonensis (WHOM/BR/75/JOSEFA strain)
# ASSAY COMMENT: Antiproliferative assay (XTT), promastigote forms, 72 h
# Type: cell-based
# PARTICULARS: fibroblast vs promastigote
The label depends only on SIL-F, selectivity index (Fibroblast CC50/L. amazonensis IC50): t if it is at least 6, f if it is smaller.

Record `O=C(N/N=C/c1ccccn1)c1noc(-c2ccc(F)cc2)c1CNc1ccc(Cl)cc1` ; criterion: SIL-F, selectivity index (Fibroblast CC50/L. amazonensis IC50) no lower than 6. Met?
t

Record `O=C(N/N=C/c1ccc(-c2cccs2)s1)c1noc(-c2ccc([N+](=O)[O-])cc2)c1CNc1ccccc1` ; criterion: SIL-F, selectivity index (Fibroblast CC50/L. amazonensis IC50) no lower than 6. Met?
t

Record `O=C(N/N=C/c1ccc(-c2cccs2)s1)c1noc(-c2ccc(Cl)cc2)c1CNc1ccc(Cl)cc1` ; criterion: SIL-F, selectivity index (Fibroblast CC50/L. amazonensis IC50) no lower than 6. Met?
t

Record `CCOC(=O)c1noc(-c2ccc(Cl)cc2)c1CNc1ccccc1` ; criterion: SIL-F, selectivity index (Fibroblast CC50/L. amazonensis IC50) no lower than 6. Met?
f

Record `O=C(N/N=C/c1ccc(-c2cccs2)s1)c1noc(-c2ccc([N+](=O)[O-])cc2)c1CNc1ccc(Cl)cc1` ; criterion: SIL-F, selectivity index (Fibroblast CC50/L. amazonensis IC50) no lower than 6. Met?
t

Record `O=C(N/N=C/c1ccccn1)c1noc(-c2ccc([N+](=O)[O-])cc2)c1CNc1ccc(Cl)cc1` ; criterion: SIL-F, selectivity index (Fibroblast CC50/L. amazonensis IC50) no lower than 6. Met?
f

Record `COc1ccc(NCc2c(C(=O)N/N=C/c3ccc(-c4cccs4)s3)noc2-c2ccc(F)cc2)cc1` ; criterion: SIL-F, selectivity index (Fibroblast CC50/L. amazonensis IC50) no lower than 6. Met?
t

Record `COc1ccc(NCc2c(C(=O)N/N=C/c3ccc(-c4cccs4)s3)noc2-c2ccc(Cl)cc2)cc1` ; criterion: SIL-F, selectivity index (Fibroblast CC50/L. amazonensis IC50) no lower than 6. Met?
t

Record `O=C(N/N=C/c1ccccn1)c1noc(-c2ccc([N+](=O)[O-])cc2)c1CNc1ccccc1` ; criterion: SIL-F, selectivity index (Fibroblast CC50/L. amazonensis IC50) no lower than 6. Met?
f

Record `NNC(=O)c1noc(-c2ccc(Cl)cc2)c1CNc1ccc(Cl)cc1` ; criterion: SIL-F, selectivity index (Fibroblast CC50/L. amazonensis IC50) no lower than 6. Met?
t

Record `COc1ccc(NCc2c(C(=O)N/N=C/c3ccccc3)noc2-c2ccc(F)cc2)cc1` ; criterion: SIL-F, selectivity index (Fibroblast CC50/L. amazonensis IC50) no lower than 6. Met?
f

Record `COc1ccc(NCc2c(C(=O)N/N=C/c3ccccc3)noc2-c2ccccc2)cc1` ; criterion: SIL-F, selectivity index (Fibroblast CC50/L. amazonensis IC50) no lower than 6. Met?
t

Record `NNC(=O)c1noc(-c2ccccc2)c1CNc1ccccc1` ; criterion: SIL-F, selectivity index (Fibroblast CC50/L. amazonensis IC50) no lower than 6. Met?
f

Record `NNC(=O)c1noc(-c2ccccc2)c1CNc1ccc(Cl)cc1` ; criterion: SIL-F, selectivity index (Fibroblast CC50/L. amazonensis IC50) no lower than 6. Met?
t

Record `O=C(N/N=C/c1ccccc1)c1noc(-c2ccc([N+](=O)[O-])cc2)c1CNc1ccccc1` ; criterion: SIL-F, selectivity index (Fibroblast CC50/L. amazonensis IC50) no lower than 6. Met?
f

Record `O=C(N/N=C/c1ccc(-c2cccs2)s1)c1noc(-c2ccc(Cl)cc2)c1CNc1ccccc1` ; criterion: SIL-F, selectivity index (Fibroblast CC50/L. amazonensis IC50) no lower than 6. Met?
t

Record `O=C(N/N=C/c1ccccc1)c1noc(-c2ccc(F)cc2)c1CNc1ccc(Cl)cc1` ; criterion: SIL-F, selectivity index (Fibroblast CC50/L. amazonensis IC50) no lower than 6. Met?
f

Record `O=C(N/N=C/c1ccccn1)c1noc(-c2ccccc2)c1CNc1ccc(Cl)cc1` ; criterion: SIL-F, selectivity index (Fibroblast CC50/L. amazonensis IC50) no lower than 6. Met?
t
